# credit: patent US20100029620A1

Parameter IC50: see the listing below.
Biological target: human adrenergic-α2C receptor (Homo sapiens, UniProt P18825)
Construct: expressed in transfected cells; membrane preparation
Sequence (P18825 1-462): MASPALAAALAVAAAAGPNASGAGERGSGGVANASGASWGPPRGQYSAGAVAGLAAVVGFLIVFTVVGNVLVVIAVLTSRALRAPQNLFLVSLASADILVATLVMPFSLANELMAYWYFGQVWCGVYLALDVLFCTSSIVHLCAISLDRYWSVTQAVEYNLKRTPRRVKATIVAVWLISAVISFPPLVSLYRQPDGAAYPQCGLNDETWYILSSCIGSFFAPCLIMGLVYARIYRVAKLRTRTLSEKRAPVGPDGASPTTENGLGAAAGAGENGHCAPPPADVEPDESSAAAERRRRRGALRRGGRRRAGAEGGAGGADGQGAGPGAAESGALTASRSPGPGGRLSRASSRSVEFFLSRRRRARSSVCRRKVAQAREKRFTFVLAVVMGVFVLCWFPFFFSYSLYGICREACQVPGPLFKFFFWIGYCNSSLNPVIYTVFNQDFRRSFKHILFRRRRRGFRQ
Assay: Radioligand binding experiment for α2C-adrenoceptor ([3H]-raulwolscine competition, CHO cell membranes)
Conditions: [3H]raulwolscine 1 nM, membranes of CHO cells transfected with human α2C receptor; read-out: pIC50 α2C (converted)
State the result as a value with its unit after it.

O=c1n(-c2ccc(CN3CCC(O)CC3)cc2)cnn1CC1CCN(CCOc2ccccc2)CC1
1.26 nM

Which IC50 value is on record for `O=c1n(-c2ccc3c(c2)CCN(Cc2ccc(F)cc2)C3)cnn1CCNCCOc1ccccc1` ?
10 nM

GET /values?readout=IC50&item= `O=c1n(-c2ccc(N3CCOCC3)cc2)cnn1CCNCCOc1ccccc1`
50.1 nM

Field request: IC50 | item: `COc1ccc(N2CCN(c3ccc(-n4cnn(Cc5ccc(CN6CCOCC6)cc5)c4=O)cc3)CC2)cc1`
631 nM

I am curious: what IC50 value has been reported for `O=c1n(-c2ccc(CN3CCOCC3)cc2)cnn1CCNCCOc1ccc(F)cc1` ?
50.1 nM

* * *

Biological target: human adrenergic-α2C receptor (Homo sapiens)
Construct: expressed in transfected cells; membrane preparation
Assay: Radioligand binding experiment for α2C-adrenoceptor ([3H]-raulwolscine competition, CHO cell membranes)
Details: [3H]raulwolscine 1 nM, membranes of CHO cells transfected with human α2C receptor; read-out: pIC50 α2C (converted)
# IC50 annotations
# number only, unit nM dropped from output

Use these answered entries as a reference point.
CN(CCNc1ccc(-n2cnn(CC3CCN(CCOc4ccccc4)CC3)c2=O)cc1)CC1CCCCC1 [compound 42]
1
O=C1c2ccccc2C(=O)N1CCCn1cnn(CC2CCN(CCOc3ccccc3)CC2)c1=O [compound 84]
0.631
O=c1n(CCNCCOc2ccccc2)cnn1CCN1CCCCC1 [compound 44]
10
CC(NCCOc1ccccc1)C(C)n1ncn(-c2ccc(N3CCN(c4ccc(O)cc4)CC3)cc2)c1=O (single isomer, unassigned) [compound 4]
6.31
O=c1n(-c2ccc(N3CCCCC3)cc2)cnn1CC1CCN(CCOc2ccccc2)CC1 [compound 63]
5.01

Field request: IC50 | item: O=c1n(-c2ccc(CN3CCOCC3)cc2)cnn1CCNCCOc1ccccc1 [compound 23]
3.16

Data request, read-out IC50, for CN1CCN(c2ccc(-n3cnn(CC4CCN(CCOc5ccccc5)CC4)c3=O)cc2)CC1 [compound 51]
7.94

Which IC50 is listed for C/C(=C\c1ccccc1)CN1CCC(n2ncn(-c3ccc(CN)cc3)c2=O)CC1 [compound 34] ?
10
